Values were extracted from BigSolDB 2.1.

- CONDITION_NOTES: in toluene, 283.15 K
MEASURE_NAME: solubility (mole fraction)
// return just the number, without any unit appended

Query block: What value of measured solubility (mole fraction) is listed for "Nc1nnn[nH]1" ?
Result block: 0.00135

* * *

- CONDITION_NOTES: in NMP, 298.15 K
MEASURE_NAME: solubility (mole fraction)
// return just the number, without any unit appended

Query block: What value of measured solubility (mole fraction) is listed for "Nc1nnn[nH]1" ?
Result block: 0.0366

* * *

- CONDITION_NOTES: in NMP, 323.15 K
MEASURE_NAME: solubility (mole fraction)
// return just the number, without any unit appended

Query block: What value of measured solubility (mole fraction) is listed for "Nc1nnn[nH]1" ?
Result block: 0.0741
